Catalogue of Cmax values
assay_overview: in vivo
condition_notes: male, CD-1, mouse, po, 10 mg/kg

Ask: Requested field: Cmax. Item: CC[C@@]1(O)C(=O)OCc2c1cc1n(c2=O)Cc2c-1c(=O)c1cc(F)ccc1n2[C@@H]1CCN(C2CCCC2)C1 [Example 257]
Reply: 528 ng/mL

Let us examine a further case.
Ask: Requested field: Cmax. Item: CC[C@@]1(O)C(=O)OCc2c1cc1n(c2=O)Cc2c-1c(=O)c1cc(F)ccc1n2[C@@H]1CCN(CC2CC2)C1 [Example 259]
Reply: 1230 ng/mL

---

assay_overview: in vivo
condition_notes: male, CD-1, mouse, po, 20 mg/kg
Catalogue of Tmax values
// return numeric value only (unit: min, not printed)

Ask: Requested field: Tmax. Item: CC[C@@]1(O)C(=O)OCc2c1cc1n(c2=O)Cc2c-1c(=O)c1cc(F)ccc1n2[C@@H]1CCN(C)C1 [Example 250]
Reply: 30

New cases:
Ask: Requested field: Tmax. Item: CC[C@@]1(O)C(=O)OCc2c1cc1n(c2=O)Cc2c-1c(=O)c1cc(F)ccc1n2[C@@H]1CCN(CCO)C1 [Example 252]
Reply: 79.8

---

assay_overview: Pharmacokinetic study in mice, plasma concentrations by LC-MS/MS
condition_notes: mouse, in vivo
Protocol: Test Example 3. Pharmacokinetic Study for Determining Compound Concentrations in Mice by LC-MS/MS Principle: LC-MS/MS is used to quantify the plasma concentrations of the test article at successive time points, generating an in-vivo pharmacokinetic profile. Procedure: The test compound was dissolved in DMSO to prepare a 10 mg/mL stock solution. […] Plasma drug concentrations were determined by LC-MS/MS. […]
endpoint_name: bioavailability
Note to self: number, then unit, no commentary.

Ask: Requested field: bioavailability. Item: "CC[C@@]1(O)C(=O)OCc2c1cc1n(c2=O)Cc2c-1c(=O)c1cc(F)ccc1n2CCN(C)C1CC1"
Reply: 34.5%

---

system_under_test: topoisomerase I (Topo I) (Homo sapiens, UniProt P11387)
Sequence (P11387 whole entry): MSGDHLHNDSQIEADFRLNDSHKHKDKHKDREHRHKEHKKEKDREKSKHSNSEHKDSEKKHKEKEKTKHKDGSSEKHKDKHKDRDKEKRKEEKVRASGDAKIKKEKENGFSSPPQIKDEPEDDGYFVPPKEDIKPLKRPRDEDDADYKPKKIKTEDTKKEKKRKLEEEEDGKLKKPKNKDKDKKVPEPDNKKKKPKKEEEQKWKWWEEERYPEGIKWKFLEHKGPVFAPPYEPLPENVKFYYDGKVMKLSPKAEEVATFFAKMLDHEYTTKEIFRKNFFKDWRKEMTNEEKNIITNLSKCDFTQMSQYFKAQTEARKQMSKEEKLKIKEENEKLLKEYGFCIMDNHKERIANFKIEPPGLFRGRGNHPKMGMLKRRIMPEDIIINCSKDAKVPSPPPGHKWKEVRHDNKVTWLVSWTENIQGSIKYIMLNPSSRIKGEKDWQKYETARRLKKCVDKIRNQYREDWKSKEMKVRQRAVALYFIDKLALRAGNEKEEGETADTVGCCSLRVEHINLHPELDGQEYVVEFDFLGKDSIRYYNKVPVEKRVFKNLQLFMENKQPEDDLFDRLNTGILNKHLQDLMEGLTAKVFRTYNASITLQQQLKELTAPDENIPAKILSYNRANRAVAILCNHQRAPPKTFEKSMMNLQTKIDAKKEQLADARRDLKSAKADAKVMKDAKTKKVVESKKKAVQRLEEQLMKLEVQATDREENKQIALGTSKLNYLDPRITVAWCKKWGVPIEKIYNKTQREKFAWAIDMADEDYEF
assay_overview: Topo I enzyme-inhibitory activity by agarose-gel electrophoresis (plasmid relaxation)
Assay type: biochemical
condition_notes: read-out: inhibition of topoisomerase I (Topo I) enzymatic activity, IC50; 0.75 U Topo I, pNO1 plasmid, 37 °C, 30 min; compounds listed by group (Group A / Group B)
endpoint_name: IC50

Ask: Requested field: IC50. Item: CC[C@@]1(O)C(=O)OCc2c1cc1n(c2=O)Cc2c-1c(=O)c1cc(F)ccc1n2CCNC1CC1 [Example 96]
Reply: < 200 nM

Ask: Requested field: IC50. Item: CC[C@@]1(O)C(=O)OCc2c1cc1n(c2=O)Cc2c-1c(=O)c1cc(F)ccc1n2CCN(C)C1CCCC1(C)C (some centres unmarked) [Example 139]
Reply: 200 to 500 nM

Ask: Requested field: IC50. Item: CC[C@@]1(O)C(=O)OCc2c1cc1n(c2=O)Cc2c-1c(=O)c1cc(F)c(C)cc1n2CCN(C)C1CCCC1 [Example 166]
Reply: 200 to 500 nM

Ask: Requested field: IC50. Item: CC[C@@]1(O)C(=O)OCc2c1cc1n(c2=O)Cc2c-1c(=O)c1cc(F)ccc1n2C1CC1 [Example 37]
Reply: < 200 nM

Ask: Requested field: IC50. Item: CC[C@@]1(O)C(=O)OCc2c1cc1n(c2=O)Cc2c-1c(=O)c1cc(F)ccc1n2CCN(C)C1CCCC1 [Example 117]
Reply: 200 to 500 nM

New cases:
Ask: Requested field: IC50. Item: CC[C@@]1(O)C(=O)OCc2c1cc1n(c2=O)Cc2c-1c(=O)c1cc3c(cc1n2-c1ccc(N)cc1)OCO3 [Example 67]
Reply: 200 to 500 nM

Ask: Requested field: IC50. Item: CC[C@@]1(O)C(=O)OCc2c1cc1n(c2=O)Cc2c-1c(=O)c1cc(F)ccc1n2CCN1CCCC1(C)C [Example 184]
Reply: < 200 nM

Ask: Requested field: IC50. Item: CC[C@@]1(O)C(=O)OCc2c1cc1n(c2=O)Cc2c-1c(=O)c1cc(F)c(C)cc1n2CCNC1CC1 [Example 161]
Reply: 200 to 500 nM

Ask: Requested field: IC50. Item: CC[C@@]1(O)C(=O)OCc2c1cc1n(c2=O)Cc2c-1c(=O)c1cc(F)ccc1n2-c1cn(C2CC2)nc1C(C)O (some centres unmarked) [Example 63]
Reply: 200 to 500 nM

Ask: Requested field: IC50. Item: CC[C@@]1(O)C(=O)OCc2c1cc1n(c2=O)Cc2c-1c(=O)c1cc(F)ccc1n2CCN(C1CCCC1)C1CC1 [Example 137]
Reply: 200 to 500 nM

Ask: Requested field: IC50. Item: CC[C@@]1(O)C(=O)OCc2c1cc1n(c2=O)Cc2c-1c(=O)c1cc(F)ccc1n2-c1cccc(OC)c1 [Example 73]
Reply: 200 to 500 nM

Ask: Requested field: IC50. Item: CC[C@@]1(O)C(=O)OCc2c1cc1n(c2=O)Cc2c-1c(=O)c1cc(F)c(N)cc1n2C1CCC(C)(C)CC1 [Example 70]
Reply: 200 to 500 nM

---

system_under_test: topoisomerase I (Topo I) (Homo sapiens)
assay_overview: Topo I enzyme-inhibitory activity by agarose-gel electrophoresis (plasmid relaxation)
Format: biochemical
condition_notes: 0.75 U Topo I, pNO1 plasmid, 37 °C, 30 min; compounds listed by group (Group A / Group B); read-out: inhibition of topoisomerase I (Topo I) enzymatic activity, IC50
pIC50: −log10 of the molar value.
Catalogue of pIC50 values

Ask: Requested field: pIC50. Item: CC[C@@]1(O)C(=O)OCc2c1cc1n(c2=O)Cc2c-1c(=O)c1cc(F)c(CC(C)O)cc1n2C1CCCC1 (stereo partly drawn)
Reply: 6.30 to 6.70

Ask: Requested field: pIC50. Item: "CC[C@@]1(O)C(=O)OCc2c1cc1n(c2=O)Cc2c-1c(=O)c1cc(F)ccc1n2CCN1CC(F)(F)C1"
Reply: 6.30 to 6.70

Ask: Requested field: pIC50. Item: "CC[C@@]1(O)C(=O)OCc2c1cc1n(c2=O)Cc2c-1c(=O)c1cc(F)ccc1n2-c1cnn(C)c1"
Reply: 6.30 to 6.70

---

system_under_test: topoisomerase I (Topo I) (Homo sapiens, UniProt P11387)
assay_overview: Topo I enzyme-inhibitory activity by agarose-gel electrophoresis (plasmid relaxation)
Type: biochemical
condition_notes: read-out: inhibition of topoisomerase I (Topo I) enzymatic activity, IC50; 0.75 U Topo I, pNO1 plasmid, 37 °C, 30 min; compounds listed by group (Group A / Group B)
Catalogue of IC50 values

// known answers, use as guide
Ask: Requested field: IC50. Item: "CC[C@@]1(O)C(=O)OCc2c1cc1n(c2=O)Cc2c-1c(=O)c1cc(F)cc(C)c1n2CCN(C1CCCC1)C1CC1"
Reply: 200 to 500 nM

Ask: Requested field: IC50. Item: "CC[C@@]1(O)C(=O)OCc2c1cc1n(c2=O)Cc2c-1c(=O)c1cc(F)c(C)cc1n2CCNC1CCCC1"
Reply: 200 to 500 nM

Ask: Requested field: IC50. Item: "CC[C@@]1(O)C(=O)OCc2c1cc1n(c2=O)Cc2c-1c(=O)c1cc(F)ccc1n2CCN1CCC(F)(F)CC1"
Reply: < 200 nM

Ask: Requested field: IC50. Item: "CC[C@@]1(O)C(=O)OCc2c1cc1n(c2=O)Cc2c-1c(=O)c1cc(F)cc(C)c1n2CCNC1CC1"
Reply: 200 to 500 nM

Let us examine a further case.
Ask: Requested field: IC50. Item: "CC[C@@]1(O)C(=O)OCc2c1cc1n(c2=O)Cc2c-1c(=O)c1cc(F)ccc1n2CCN1CCC(C)(C)CC1"
Reply: 200 to 500 nM
